settings: 303.15 K; 101 kPa; Liquid
Property: mass density; scope: individual compounds

compound: CCCCCCCC
mass density [kg/m3]: 693.9

compound: CCCCCC
mass density [kg/m3]: 649.8

compound: C1CCCCC1
mass density [kg/m3]: 768.3

compound: CCCCCCC
mass density [kg/m3]: 674.5

compound: COC(=O)c1ccccc1 [methyl benzoate]
mass density [kg/m3]: 1078.3

====

speed of sound values by entry
details: 313.15 K; 101 kPa; Liquid; Pulse-echo method
Numbers after ± are expanded uncertainties.
parameter_measured: speed of sound

compound: C1CCCCC1
parameter_measured: speed of sound
endpoint_result: 1188 ± 5 m/s

compound: CCCCCCCC
parameter_measured: speed of sound
endpoint_result: 1112 ± 5 m/s

compound: CCCCCCC
parameter_measured: speed of sound
endpoint_result: 1072 ± 4 m/s

compound: CCCCCC
parameter_measured: speed of sound
endpoint_result: 1008 ± 4 m/s

compound: COC(=O)c1ccccc1 [methyl benzoate]
parameter_measured: speed of sound
endpoint_result: 1348 ± 6 m/s

====

Catalogue of speed of sound values
conditions: 308.15 K; 101 kPa; Liquid; Pulse-echo method
± gives the expanded uncertainty stated by the source.

molecule: CCCCCCCC
speed of sound: 1132 ± 5 m/s
//
molecule: C1CCCCC1
speed of sound: 1208 ± 5 m/s
//
molecule: CCCCCC
speed of sound: 1028 ± 4 m/s
//
molecule: COC(=O)c1ccccc1 [methyl benzoate]
speed of sound: 1364 ± 6 m/s
//
molecule: CCCCCCC
speed of sound: 1092 ± 5 m/s

====

details: 313.15 K; 101 kPa; Liquid
Just a reminder that ties go to false (0): only viscosity strictly below 0.3 mPa·s counts as true (1).

compound: CCCCCCC
group_label: false (0)
--
compound: CCCCCC
group_label: true (1)
--
compound: CCCCCCCC
group_label: false (0)
--
compound: C1CCCCC1
group_label: false (0)
--
compound: COC(=O)c1ccccc1 [methyl benzoate]
group_label: false (0)

====

conditions: 303.15 K; 101 kPa; Liquid

molecule: C1CCCCC1
viscosity, mPa·s: 0.823
//
molecule: COC(=O)c1ccccc1 [methyl benzoate]
viscosity, mPa·s: 1.667
//
molecule: CCCCCCCC
viscosity, mPa·s: 0.491
//
molecule: CCCCCCC
viscosity, mPa·s: 0.375
//
molecule: CCCCCC
viscosity, mPa·s: 0.283

====

conditions: 308.15 K; 101 kPa; Liquid
parameter_measured: viscosity (mPa·s)

molecule: COC(=O)c1ccccc1 [methyl benzoate]
endpoint_result: 1.514
--
molecule: CCCCCCCC
endpoint_result: 0.45
--
molecule: CCCCCC
endpoint_result: 0.269
--
molecule: C1CCCCC1
endpoint_result: 0.772
--
molecule: CCCCCCC
endpoint_result: 0.35

====

settings: 308.15 K; 101 kPa; Liquid

compound: CCCCCCC
unit_info: kg/m3
mass density: 670.3
--
compound: COC(=O)c1ccccc1 [methyl benzoate]
unit_info: kg/m3
mass density: 1074.4
--
compound: C1CCCCC1
unit_info: kg/m3
mass density: 764.4
--
compound: CCCCCCCC
unit_info: kg/m3
mass density: 690.4
--
compound: CCCCCC
unit_info: kg/m3
mass density: 645.9
